Ref: patent US9725442B2

Biological target: CRTH2 (Homo sapiens (Human), UniProt Q9Y5Y4)
Sequence (Q9Y5Y4 whole entry): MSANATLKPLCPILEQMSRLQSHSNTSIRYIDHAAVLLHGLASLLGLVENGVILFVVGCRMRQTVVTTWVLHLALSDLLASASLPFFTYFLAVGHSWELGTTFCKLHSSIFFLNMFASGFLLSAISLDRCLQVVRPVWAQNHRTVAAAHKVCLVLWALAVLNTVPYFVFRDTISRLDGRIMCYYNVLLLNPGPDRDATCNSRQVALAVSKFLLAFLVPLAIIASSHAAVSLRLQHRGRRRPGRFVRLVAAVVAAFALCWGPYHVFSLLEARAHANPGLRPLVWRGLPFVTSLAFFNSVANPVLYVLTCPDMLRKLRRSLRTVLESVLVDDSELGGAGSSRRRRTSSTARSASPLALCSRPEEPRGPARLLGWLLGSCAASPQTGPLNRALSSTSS
Assay: CRTH2 receptor binding inhibitory activity ([3H]-PGD2 displacement, membranes of CRTH2-expressing K562 cell)
Details: [3H]-PGD2 displacement, membrane of CRTH2-expressing K562 cell; read-out: Ki
PROPERTY_LABEL: pKi
pKi (log units): -log10 of the concentration in mol/L.

// fetch CRTH2 (Homo sapiens (Human), UniProt Q9Y5Y4) pKi for "CO/N=C/[C@H]1C[C@@H](n2nc(CC(=O)O)c3ccc(F)cc32)CN1S(=O)(=O)c1ccc(OC(C)C)cc1"
7.21

// fetch CRTH2 (Homo sapiens (Human), UniProt Q9Y5Y4) pKi for "CCOc1ccc(S(=O)(=O)N2C[C@H](n3nc(CC(=O)O)c4ccccc43)CC23COC3)cc1"
6.40
